system tested: HIV-1 gp41 (strain HXB2) (HIV-1 strain HXB2, UniProt P04578 512-856)
run description: cell-based or functional assay
Ends that are not written are not given here. * marks the point of attachment. Biotin = O=C1N[C@H]2[C@H](CS[C@H]2CCCCC(=O)*)N1
Provide the recorded IC50, single-cycle HIV infectivity assay for the entries that follow.
Answers are plain numbers, in nM.

Observe how each entry below is paired with its result.
Ac-IKKEIEAIKKEQEAIKKKIEAIEKLLQLTVWGIKQLQARIL-NH2 (also: non-covalent trimeric coiled-coil) [IZN17]; 1.7
Ac-CCGGIKKEIEAIKKEQEAIKKKIEAIEKLLQLTVWGIKQLQARIL-NH2 (not fully specified (bridges); also: homotrimer of three chains, cysteine pairing not given here) [(CCIZN17)3]; 0.04
Biotin-GGIKKEIEAIKKEQEAIKKKIEAIEKEIEAQQHLLQLTVWGIKQLQARIL [Biotin-IZN23]; 2.17

// moving on: another record for IC50, single-cycle HIV infectivity assay
Quick one: IC50, single-cycle HIV infectivity assay for (Biotin-CCIZN23)3 (not fully specified (bridges); also: covalent homotrimer via three interchain disulfides) peptide: Biotin-GCCGGIKKEIEAIKKEQEAIKKKIEAIEKEIEAQQHLLQLTVWGIKQLQARIL ? 0.316
